- Measured On: T1, human C1s deletion mutant 1 (M151) (human) (UniProt P09871)
- T1 sequence: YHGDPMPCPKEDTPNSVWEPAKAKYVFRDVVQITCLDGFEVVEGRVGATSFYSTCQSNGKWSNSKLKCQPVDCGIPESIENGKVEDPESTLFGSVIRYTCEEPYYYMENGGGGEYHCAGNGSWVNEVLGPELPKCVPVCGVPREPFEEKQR
- Method Notes: ELISA, plate coated with 200 ng/well HuC1s(M151), OD450nm
Below, each entry is listed with its recorded EC50.
Could you give me the number in µg/mL? Just the number is fine.

Solved cases below.
Binder | EC50, µg/mL
Anti-C1s antibody hz2-7(H1L2) (antibody, V domains shown, Humanized, human IgG1 / kappa; also called hz2-7(1L2)) VH: EVQLLESGGGLVQPGGSLRLSCAASGFTFSNYFMNWVRQAPGKGLEWVSEIRLKFTNYATHYADSVKGRFTISRDDSKSTLYLQMNSLRAEDTAVYYCTRDYGSRNGYFDYWGQGTLVTVSS VL: DIVMTQTPLSLPVTPGEPASISCRSSKSLLHSNGNTFLYWFLQKPGQSPQLLIYRMSNLASGVPDRFSGSGSGTDFTLKISRVEAEDVGVYYCMQHLEYPYTFGGGTKLEIKR | 0.008
Anti-C1s antibody 2-7 (antibody, human IgG1, kappa, V domains shown, the HC/LC entries may hold it too; also called clone 2-7) VH: EVKLEESGGGLVPPGGSMKLSCVASGFTFSNYFMNWVRQSPEKGLEWVAEIRLKFTNYATHYAESVEGRFTISRDDSKSSVYLQMNNLRAEDTGIYYCTRDYGSRNGYFDYWGQGTTLTVSS VL: DIVMTQAAPSVPVTPGESVSISCRSSKSLLHSNGNTFLYWFLQRPGQSPQLLIYRMSNLASGVPDRFSGSGSGTAFTLRVSRVEAEDVGIYYCMQHLEYPYTFGGGTKLEIKT | 0.013
Anti-C1s antibody 2-8 (antibody, V domains shown, the HC/LC entries may hold it too; also called clone 2-8) VH: EVQLQQSGAELVRPGALVKLSCKASGFNIKEYYMHWVKQRPEQGLEWIGWIDPENGDTIYDPKFQGKASITADTSSNTAYLQLSSLTSEDTAVYYCARSRLFFAYWGQGTLVTVSA VL: DIVMTQSHKFMSTSVGDRVSFTCKASQDVRTAVDWYQQKPGQSPKLLIYSASYRYTGVPDRFTGTGSGTDFTFTISSVQAEDLAVYFCQQQYTTPYTFGGGTKLEIKT | 0.018

// next item, EC50 requested
Prompt line: Please look up its EC50: Anti-C1s antibody hz2-8(H1L2) (antibody, V domains shown, Humanized, human IgG1 / kappa) VH: QVQLVQSGAEVKKPGASVKVSCKASGFNIKEYYMHWVRQAPEQGLEWMGWIDPENGDTIYAQKFQGRVTITADTSTNTAYMELSSLRSEDTAVYYCARSRLFFAYWGQGTLVTVSS VL: DIQMTQSPKSLSASVGDRVTITCRASQDVRTALDWYQQKPGQSPKLLIYSASYRYSGVPSRFSGSGSGTDFTLTISSLQPEDFATYYCQQQYTTPYTFGQGTKLEIKR
Response line: 0.003
